Read-out: Interleukin-8 (IL8), CXCL8 (gene 3576)
Assay: BSK_SAg_IL8: BioMAP Diversity Plus: SAg Assay for Interleukin-8 (IL8) Biomarker Activity (AID 2283094)
Details: primary human HUVEC with PBMC; actives raise or lower the signal
Calls of active or inactive are those of the source. The calls were made as follows: active = hit-call score of the fitted dose curve at least 0.9, where 1 is the maximum; inactive = score below 0.9.
Hi! Could you answer with just one of these? active, inactive

Example cases with answers are listed next.
- compound: "NC(=O)CCl"
  answer-label: "inactive"
- compound: "CC(C)(C)c1cc([N+](=O)[O-])cc(C(C)(C)C)c1O"
  answer-label: "active"
- compound: "CCOP(=S)(OCC)OP(=S)(OCC)OCC"
  answer-label: "active"

Lab note: next compound to report on.
Tell me the assay call for CC(C)(C)c1ccccc1O please. inactive
